TARGET_UNDER_TEST: Neu5Ac(a2-3)Gal(b1-3)GlcNAc(b1-6)GalNAc
ASSAY_DETAILS: glycan array binding signal (z-score within array); higher = stronger binding
TEST_SETTINGS: glycan notation: IUPAC condensed, linker removed
The sample as a whole holds a higher share of the strongest signals than the screen did.
Recorded glycan array binding signal (z-score) values for a group of binders are listed next.
MEASURE_NAME: glycan array binding signal (z-score)

INSERT INTO results (binder, measure_name, value_reported) VALUES
  ('EUL D1A second (Oryza sativa) (protein) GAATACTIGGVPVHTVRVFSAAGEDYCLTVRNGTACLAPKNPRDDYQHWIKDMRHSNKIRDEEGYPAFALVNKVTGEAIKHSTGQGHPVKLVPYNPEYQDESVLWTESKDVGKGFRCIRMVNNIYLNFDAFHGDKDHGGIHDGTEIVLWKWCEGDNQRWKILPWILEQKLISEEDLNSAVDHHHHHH', 'glycan array binding signal (z-score)', -0.587),
  ('AT1G73650(15) (Arabidopsis thaliana), F4HRY1 (protein) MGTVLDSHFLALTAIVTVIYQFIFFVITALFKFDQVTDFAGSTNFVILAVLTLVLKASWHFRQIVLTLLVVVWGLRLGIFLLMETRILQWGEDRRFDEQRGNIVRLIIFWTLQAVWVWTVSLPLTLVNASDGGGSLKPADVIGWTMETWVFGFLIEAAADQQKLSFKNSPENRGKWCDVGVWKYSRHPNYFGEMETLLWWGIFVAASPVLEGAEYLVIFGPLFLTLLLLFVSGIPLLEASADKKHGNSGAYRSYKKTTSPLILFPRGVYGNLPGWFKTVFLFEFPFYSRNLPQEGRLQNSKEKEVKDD', 'glycan array binding signal (z-score)', 3.42),
  ('Banana lectin (Musa acuminata) (protein) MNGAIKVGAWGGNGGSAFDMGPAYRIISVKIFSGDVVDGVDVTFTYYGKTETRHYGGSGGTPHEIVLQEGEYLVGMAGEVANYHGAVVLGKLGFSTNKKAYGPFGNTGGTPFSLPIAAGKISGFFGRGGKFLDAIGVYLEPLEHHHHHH', 'glycan array binding signal (z-score)', -0.288),
  ('DC-ASGPR L+GEE (Homo sapiens) (protein) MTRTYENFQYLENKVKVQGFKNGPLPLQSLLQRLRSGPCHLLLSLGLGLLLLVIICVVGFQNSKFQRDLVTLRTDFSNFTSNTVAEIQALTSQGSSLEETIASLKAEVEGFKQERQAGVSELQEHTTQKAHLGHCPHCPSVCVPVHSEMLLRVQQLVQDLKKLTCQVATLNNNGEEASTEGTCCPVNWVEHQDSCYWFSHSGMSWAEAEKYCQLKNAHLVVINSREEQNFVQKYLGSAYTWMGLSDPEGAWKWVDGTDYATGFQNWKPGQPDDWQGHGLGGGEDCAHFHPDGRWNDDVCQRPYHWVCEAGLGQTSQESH', 'glycan array binding signal (z-score)', 6.64),
  ('Thrombomodulin (Mus musculus) (protein) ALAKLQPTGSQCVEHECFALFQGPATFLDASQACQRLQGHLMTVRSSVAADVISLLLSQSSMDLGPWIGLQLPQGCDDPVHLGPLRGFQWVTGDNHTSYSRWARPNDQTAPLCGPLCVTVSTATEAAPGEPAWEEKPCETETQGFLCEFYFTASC', 'glycan array binding signal (z-score)', 0.614),
  ('XTP3-B-MRH2 (Homo sapiens), Q96DZ1 (protein) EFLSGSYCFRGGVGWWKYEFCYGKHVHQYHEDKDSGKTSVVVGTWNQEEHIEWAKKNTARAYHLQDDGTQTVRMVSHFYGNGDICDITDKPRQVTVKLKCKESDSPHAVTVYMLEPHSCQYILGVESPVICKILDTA', 'glycan array binding signal (z-score)', 1.44);

Provenance of the data: the supplement of paper PMC8728848
